Reported IC50 on UniProt:Q9UHD2 for assorted compounds, compiled from publications.

Observe how each entry below is paired with its result.
| SMILES STRUCTURE | PROPERTY NAME | READING |
| --- | --- | --- |
| CCNC(=O)c1ccc(-c2cc3nccc(-c4ccc(OC5CCOCC5)c(C#N)c4)c3o2)cc1 | IC50 | 300 to 3000 nM |
| N#Cc1cc(-c2ccnc3cc(-c4ccc(C(=O)NCCN5CCC(F)(F)CC5)cc4)oc23)ccc1OC1CCOCC1 | IC50 | < 300 nM |
| CC(=O)Nc1ccc(Nc2nccc(-c3ccc(N)c4c3CNC4=O)n2)cc1 | IC50 | 100 nM |

Moving on to another compound below.
Report IC50 for `Cn1cc(-c2cnc3[nH]cc(-c4cnc(OC5CCOCC5)c(C#N)c4)c3c2)cn1` tested on UniProt:Q9UHD2.
< 300 nM

###

Reported IC50 on TBK1 (Homo sapiens, UniProt Q9UHD2) for assorted compounds, compiled from publications.
Sequence (Q9UHD2 whole entry): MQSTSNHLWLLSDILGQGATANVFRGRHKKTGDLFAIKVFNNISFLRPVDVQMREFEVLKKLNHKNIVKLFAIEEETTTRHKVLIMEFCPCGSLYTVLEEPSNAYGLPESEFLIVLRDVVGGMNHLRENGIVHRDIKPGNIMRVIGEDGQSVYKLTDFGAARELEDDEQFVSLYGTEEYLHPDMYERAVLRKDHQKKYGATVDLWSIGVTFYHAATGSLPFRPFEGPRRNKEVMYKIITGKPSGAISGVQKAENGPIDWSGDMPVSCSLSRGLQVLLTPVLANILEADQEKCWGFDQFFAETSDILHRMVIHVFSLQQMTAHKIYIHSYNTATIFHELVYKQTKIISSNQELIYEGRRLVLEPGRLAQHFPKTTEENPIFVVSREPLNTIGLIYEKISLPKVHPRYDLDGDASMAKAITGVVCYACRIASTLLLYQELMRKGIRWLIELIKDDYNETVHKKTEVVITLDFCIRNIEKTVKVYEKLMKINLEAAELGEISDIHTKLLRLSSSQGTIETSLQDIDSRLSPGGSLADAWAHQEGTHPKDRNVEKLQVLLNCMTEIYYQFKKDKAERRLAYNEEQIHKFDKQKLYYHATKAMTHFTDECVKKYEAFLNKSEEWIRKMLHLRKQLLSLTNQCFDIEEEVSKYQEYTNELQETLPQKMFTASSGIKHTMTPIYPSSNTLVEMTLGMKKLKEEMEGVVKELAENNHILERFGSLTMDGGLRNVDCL

Observe how each entry below is paired with its result.
| COMPOUND | IC50 |
| --- | --- |
| N#Cc1cc(-c2ccnc3cc(-c4cnn(C5CCNCC5)c4)sc23)ccc1OC1CCOCC1 | < 300 nM |
| O=C(NCCCn1ccc2cnc(Nc3cccc(F)c3)nc21)C1CCC1 | < 100 nM |
| COc1nc(Nc2cc(-c3ccc(OC4CCN(C(=O)[C@@H](C)O)CC4(F)F)c(C#N)c3)ncn2)ccc1N1CCN(C)[C@@H](C)C1 (some centres unmarked) | < 100 nM |
| O=C(CC1CCCC1)NCCCn1ccc2cnc(Nc3ccc(N4CCOCC4)nc3)nc21 | 100 to 1000 nM |

Report IC50 for `COc1ccc(-c2cc3c(C4=CCN(C(=O)NC5CCCC5)CC4)c[nH]c3nc2N)cc1OC` tested on TBK1 (Homo sapiens, UniProt Q9UHD2).
> 10000 nM

Report IC50 for `COc1nc(Nc2cc(-c3ccc(O[C@H]4CCN(C(=O)[C@H](C)O)CC4(F)F)c(C#N)c3)ncn2)ccc1N1CCN(C2COC2)CC1` tested on TBK1 (Homo sapiens, UniProt Q9UHD2).
< 100 nM

Report IC50 for `COc1ccc(-c2cnc3[nH]cc(C4CCN(C(=O)NC(C)C)CC4)c3c2)cc1OC` tested on TBK1 (Homo sapiens, UniProt Q9UHD2).
> 10000 nM

Report IC50 for `Cc1ccc(-c2cc3nccc(-c4ccc(OC5CCOCC5)c(C#N)c4)c3o2)o1` tested on TBK1 (Homo sapiens, UniProt Q9UHD2).
< 300 nM

Report IC50 for `COc1nc(Nc2cc(-c3ccc(OC4CCN(C(=O)c5cocn5)CC4)c(C#N)c3)ncn2)ccc1N1CCN(C)CC1` tested on TBK1 (Homo sapiens, UniProt Q9UHD2).
< 100 nM

Report IC50 for COc1nc(Nc2cc(-c3ccc(OC4CCN(C(=O)[C@H](C)O)CC4(F)F)c(C#N)c3)ncn2)ccc1C1CCN(C2COC2)CC1 (some centres unmarked) tested on TBK1 (Homo sapiens, UniProt Q9UHD2).
< 100 nM

Report IC50 for `COc1nc(Nc2cc(-c3ccc(OC4CCN(C(=O)c5cocn5)CC4)c(C#N)c3)ncn2)ccc1C(=O)N(C)C` tested on TBK1 (Homo sapiens, UniProt Q9UHD2).
< 100 nM
